- System: SU-DHL-10 (B-Cell Non-Hodgkin's Lymphoma);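 also: after 72 h of two-drug dosing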
- assay comment: Bliss excess, mean over the matrix (fraction); higher = more synergy
Returns Fulfilled if the recorded Bliss excess is greater than or equal to 0.03, and Not fulfilled otherwise.

Would you say CC(=O)Nc1cccc(-n2c(=O)n(C3CC3)c(=O)c3c(Nc4ccc(I)cc4F)n(C)c(=O)c(C)c32)c1 [Trametinib] + Cc1nc(-c2cn3c(n2)-c2ccc(-c4cnn(C(C)(C)C(N)=O)c4)cc2OCC3)n(C(C)C)n1 [Taselisib] (first compound max 1 µM, 7x7, partner max 10 µM) shows Bliss excess at minimum 0.03?
Fulfilled

# check: Bliss excess of Cc1c2c(nn1C)CSCc1cc(n(C)n1)CSc1cc(c3ccccc3c1)OCCCc1c(C(=O)O)n(C)c3c-2c(Cl)ccc13 [AZD5991] + Cn1cnc2c(F)c(Nc3ccc(Br)cc3Cl)c(C(=O)NOCCO)cc21 [Selumetinib] (first compound max 1 µM, 7x7, partner max 3 µM) is greater than or equal to 0.03
Not fulfilled

Would you say Cc1c2c(nn1C)CSCc1cc(n(C)n1)CSc1cc(c3ccccc3c1)OCCCc1c(C(=O)O)n(C)c3c-2c(Cl)ccc13 [AZD5991] + C=CCn1c(=O)c2cnc(Nc3ccc(N4CCN(C)CC4)cc3)nc2n1-c1cccc(C(C)(C)O)n1 [AZD1775] (first compound max 1 µM, partner max 1 µM) shows Bliss excess at minimum 0.03?
Not fulfilled

Check this compound for Bliss excess at or above 0.03: NC1(C(=O)N[C@@H](CCO)c2ccc(Cl)cc2)CCN(c2ncnc3[nH]ccc23)CC1 [Capivasertib] + COc1nnc2ccc(N3CCC(c4ccc(OCCN5CCN(C)C(=O)[C@H]5C)cc4)CC3)nn12 [AZD5153] (first compound max 10 µM, 7x7, partner max 1 µM)
Not fulfilled

API: above_or_equal(metric=Bliss excess, cutoff=0.03) for item CCc1c2c(nc3ccc(O)cc13)-c1cc3c(c(=O)n1C2)COC(=O)[C@]3(O)CC [SN-38] + CN(C)CCCOc1ccc(-c2ccc3ncc4c(c3c2)n(C2CCOCC2)c(=O)n4C)cn1 [AZD0156] (first compound max 0.3 µM, 7x7, partner max 1 µM)
Not fulfilled
